METHOD_SUMMARY: Plasma concentration in human SUP-M2 cells xenografted SCID mouse at 30 mg/kg, po measured after 6 hrs
Type: ADME, organism-based
Parameters: dose 30 mg/kg, route oral
CONDITION_NOTES: SCID, plasma
PROPERTY_NAME: concentration at 6 h (ng/mL)
API: value field is a number in ng/mL; no unit string.

Known results for compounds:
COc1cc(C2CCN(CCO)CC2O)ccc1Nc1ncc2ccc(-c3ccccc3OC)n2n1 (single isomer, unassigned; enantiomer 1) :: 148
COc1cc([C@H]2CCN(CCO)C[C@@H]2O)ccc1Nc1ncc2ccc(-c3ccccc3OC)n2n1 (relative stereo) :: 361

Next:
In: Provide measured concentration at 6 h value, entry: COc1cc([C@@H]2CCN(CCO)C[C@@H]2O)ccc1Nc1ncc2ccc(-c3ccccc3OC)n2n1 (racemic)
Out: 201

* * *

METHOD_SUMMARY: Half life in mouse liver microsomes
Type: ADME
PROPERTY_NAME: half-life

Below are worked cases with known answers.
COc1cc([C@H]2CCN(CCO)C[C@@H]2O)ccc1Nc1ncc2ccc(-c3ccccc3OC)n2n1 (relative stereo) :: > 40 min
COc1cc([C@@H]2CCNC[C@@H]2O)ccc1Nc1ncc2ccc(-c3ccccc3OC)n2n1 (relative stereo) :: > 40 min
COc1cc([C@@]2(O)CCNC[C@@H]2O)ccc1Nc1ncc2ccc(-c3ccccc3OC)n2n1 :: > 40 min
COc1cc([C@@]2(O)CCN(CC(N)=O)C[C@@H]2O)ccc1Nc1ncc2ccc(-c3ccccc3N(C)S(C)(=O)=O)n2n1 :: > 40 min

In: Consider the compound COc1cc([C@@H]2CCN(CC(N)=O)C[C@@H]2O)ccc1Nc1ncc2ccc(-c3ccccc3OC)n2n1 (relative stereo) . State its measured half-life.
Out: > 40 min

In: Identify half-life associated with the compound COc1cc(C2CCN(C)CC2O)ccc1Nc1ncc2ccc(-c3ccccc3OC)n2n1 (racemic)
Out: 18 min

In: Specify half-life for COc1cc([C@@]2(O)CCN(CC(N)=O)C[C@@H]2O)ccc1Nc1ncc2ccc(-c3ccccc3OC)n2n1 and stop.
Out: > 40 min

* * *

METHOD_SUMMARY: Half life in rat liver microsomes
Type: ADME
PROPERTY_NAME: half-life

COc1cc([C@@H]2CCNC[C@@H]2O)ccc1Nc1ncc2ccc(-c3ccccc3OC)n2n1 (relative stereo) :: > 40 min
COc1cc([C@@]2(O)CCNC[C@@H]2O)ccc1Nc1ncc2ccc(-c3ccccc3OC)n2n1 :: > 40 min

In: Read off the recorded half-life for COc1cc(C2CCN(C)CC2O)ccc1Nc1ncc2ccc(-c3ccccc3OC)n2n1 (racemic)
Out: > 40 min

* * *

METHOD_SUMMARY: Drug concentration in brain of human SUP-M2 cells xenografted SCID mouse at 30 mg/kg, po measured after 12 hrs
Type: ADME, organism-based
Parameters: dose 30 mg/kg, route oral
CONDITION_NOTES: read-out: Drug uptake
Listing of entries alongside the reported concentration at 12 h.
The response must be a number in ng/g with no trailing unit.

COc1cc([C@@H]2CCN(CCO)C[C@@H]2O)ccc1Nc1ncc2ccc(-c3ccccc3OC)n2n1 (racemic) :: 2520

The record that follows has no concentration at 12 h shown yet.
In: Supply concentration at 12 h value. Item: COc1cc([C@H]2CCN(CCO)C[C@@H]2O)ccc1Nc1ncc2ccc(-c3ccccc3OC)n2n1 (relative stereo)
Out: 2670
